Where do these numbers come from? They come from paper PMC3880643.

- protocol: Resazurin cell toxicity assay
- Format: cell-based
- study_conditions: human, U2OS cells
readout: EC50 at 48 h

>>> result("COc1cc2c(NC3CCN(C(C)C)CC3)nc(N3CCC(F)(F)CC3)nc2cc1OCCCN1CCCC1")
"> 3000 nM"

* * *

- protocol: In vitro metabolic stability in mouse liver microsomes
readout: CLint (mL/min/g liver)

>>> quantitative_result("COc1cc2c(NC3CCN(C(C)C)CC3)nc(C3CCOCC3)nc2cc1OCCCN1CCCC1")
4.7
>>> quantitative_result("COc1cc2c(NC3CCN(C(C)C)CC3)nc(N3CCOCC3)nc2cc1OCCCN1CCCC1")
0.7
>>> quantitative_result("COc1cc2c(NC3CCN(C(C)C)CC3)nc(N3CCC(F)(F)CC3)nc2cc1OCCCN1CCCC1")
0.5
>>> quantitative_result("COc1cc2c(NC3CCN(C(C)C)CC3)nc(C3CCCCC3)nc2cc1OCCCN1CCCC1 [Compound 5, reference compound]")
1.0

* * *

- Tested on: MDA-MB-231 cells
- protocol: Resazurin
- study_conditions: read-out: Cell Toxicity EC50; MDA-MB-231 cells, 48 h
readout: EC50 (µM)

>>> quantitative_result("COc1cc2c(NC3CCN(C(C)C)CC3)nc(N3CCCCCC3)nc2cc1OCCCN1CCCC1 [Compound 17]")
5.7

* * *

- protocol: Resazurin cell toxicity assay
- Type: cell-based
- study_conditions: human, PANC-1 cells, Cell Toxicity EC50, PANC-1 cells
readout: EC50 at 48 h

>>> result("COc1cc2c(NC3CCN(C(C)C)CC3)nc(N3CCC(F)(F)CC3)nc2cc1OCCCN1CCCC1")
"> 3 µM"

* * *

Listed here: items and their measured EC50 at 48 h.
- protocol: Resazurin
- study_conditions: human
readout: EC50 at 48 h

>>> result("COc1cc2c(NC3CCN(C(C)C)CC3)nc(N3CCCCC3)nc2cc1OCCCN1CCCC1")
"7 µM"
>>> result("COc1cc2c(NC3CCN(C4CC4)CC3)nc(N3CCS(=O)(=O)CC3)nc2cc1OCCCN1CCCC1")
"> 50 µM"
>>> result("COc1cc2c(NC3CCN(C(C)C)CC3)nc(C3CCOCC3)nc2cc1OCCCN1CCCC1")
"> 50 µM"

* * *

- test_system: UniProt:Q15910
- Sequence (Q15910 whole entry): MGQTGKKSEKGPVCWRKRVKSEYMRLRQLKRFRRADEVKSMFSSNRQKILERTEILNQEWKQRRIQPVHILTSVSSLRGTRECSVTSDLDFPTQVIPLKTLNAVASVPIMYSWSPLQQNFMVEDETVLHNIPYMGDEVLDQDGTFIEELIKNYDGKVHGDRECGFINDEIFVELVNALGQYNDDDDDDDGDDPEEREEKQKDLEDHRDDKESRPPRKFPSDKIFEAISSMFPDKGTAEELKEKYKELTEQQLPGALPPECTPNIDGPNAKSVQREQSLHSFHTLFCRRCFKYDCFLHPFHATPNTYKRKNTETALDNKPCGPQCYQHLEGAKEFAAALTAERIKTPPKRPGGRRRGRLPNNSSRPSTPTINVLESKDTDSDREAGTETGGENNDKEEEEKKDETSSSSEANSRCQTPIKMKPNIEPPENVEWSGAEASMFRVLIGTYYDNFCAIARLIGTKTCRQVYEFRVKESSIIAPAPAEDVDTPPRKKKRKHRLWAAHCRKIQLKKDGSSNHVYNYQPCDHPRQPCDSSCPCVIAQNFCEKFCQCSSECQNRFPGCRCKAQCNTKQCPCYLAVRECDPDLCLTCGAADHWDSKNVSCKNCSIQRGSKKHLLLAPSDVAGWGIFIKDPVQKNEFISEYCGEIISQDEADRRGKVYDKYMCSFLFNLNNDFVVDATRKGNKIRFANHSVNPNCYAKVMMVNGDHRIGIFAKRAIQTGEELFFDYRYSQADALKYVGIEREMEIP
- Sequence (O75530 whole entry, further chain): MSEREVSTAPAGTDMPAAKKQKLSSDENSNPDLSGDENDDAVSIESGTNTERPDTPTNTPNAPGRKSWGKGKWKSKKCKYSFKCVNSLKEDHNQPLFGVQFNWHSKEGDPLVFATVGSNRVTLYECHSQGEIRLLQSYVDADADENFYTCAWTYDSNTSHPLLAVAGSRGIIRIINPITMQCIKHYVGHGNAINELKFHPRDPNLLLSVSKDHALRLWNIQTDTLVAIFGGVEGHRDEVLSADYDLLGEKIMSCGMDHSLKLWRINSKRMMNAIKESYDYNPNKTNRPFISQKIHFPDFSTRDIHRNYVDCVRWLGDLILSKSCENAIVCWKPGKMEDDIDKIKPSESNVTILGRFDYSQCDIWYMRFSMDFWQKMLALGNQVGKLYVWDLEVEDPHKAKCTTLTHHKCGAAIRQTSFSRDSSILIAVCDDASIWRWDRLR
- Sequence (Q15022 whole entry, further chain): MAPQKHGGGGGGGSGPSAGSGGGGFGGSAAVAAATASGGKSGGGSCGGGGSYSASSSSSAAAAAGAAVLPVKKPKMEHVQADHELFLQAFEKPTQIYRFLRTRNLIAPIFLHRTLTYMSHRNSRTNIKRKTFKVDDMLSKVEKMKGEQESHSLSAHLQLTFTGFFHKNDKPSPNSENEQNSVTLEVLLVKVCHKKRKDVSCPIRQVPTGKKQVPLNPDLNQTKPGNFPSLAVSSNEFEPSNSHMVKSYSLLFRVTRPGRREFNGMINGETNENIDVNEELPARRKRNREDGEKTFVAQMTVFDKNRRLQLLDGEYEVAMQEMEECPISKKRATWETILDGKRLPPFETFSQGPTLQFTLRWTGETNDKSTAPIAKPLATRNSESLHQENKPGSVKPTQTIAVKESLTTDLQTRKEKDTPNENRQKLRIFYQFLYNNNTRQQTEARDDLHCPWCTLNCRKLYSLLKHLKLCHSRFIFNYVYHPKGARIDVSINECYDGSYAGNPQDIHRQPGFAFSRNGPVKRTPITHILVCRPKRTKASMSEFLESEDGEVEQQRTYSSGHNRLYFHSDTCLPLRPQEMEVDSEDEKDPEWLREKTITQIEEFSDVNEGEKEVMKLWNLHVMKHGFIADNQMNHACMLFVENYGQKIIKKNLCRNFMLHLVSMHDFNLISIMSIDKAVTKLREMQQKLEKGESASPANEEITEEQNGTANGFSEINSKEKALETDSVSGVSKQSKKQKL
readout: IC50

>>> result("COc1cc2c(NC3CCN(C(C)C)CC3)nc(N3CCC(F)(F)CC3)nc2cc1OCCCN1CCCC1")
"> 5 µM"
